- Tested on: blackgrass
- Procedure summary: Test C preemergence
- Format: in vivo, Alopecurus myosuroides
- Study conditions: Test C, preemergence, 125 g ai/ha; 0 to 100 scale (0 no effect, 100 complete control)
Measurement kind: Blackgrass plant response rating

Here's what some known entries look like.
smiles_code=CCn1cnc(-c2cccc(C(=O)N3C[C@H](C)Oc4c(Cl)cccc43)c2)n1 measurement_kind="Blackgrass plant response rating" result=0
smiles_code=C[C@H]1CN(C(=O)c2cc(-n3cnc(C(C)(C)C)n3)cc3c2OCCO3)c2cccc(Cl)c2O1 measurement_kind="Blackgrass plant response rating" result=20
smiles_code=Cc1cccc2c1O[C@@H](C)CN2C(=O)c1cccc(-n2cnc(C(C)(C)O)n2)c1 measurement_kind="Blackgrass plant response rating" result=90

Let us examine a further case.
Q: Which Blackgrass plant response rating is reported for this compound? Cc1cccc2c1O[C@@H](C)CN2C(=O)c1cccc(-n2cnc(N(C)S(C)(=O)=O)n2)c1
A: 30
